The entries below come with measured viability at 28.5 h, 10 µM values attached.
- protocol.notes: in vitro
- condition.info: human, hela cells, % viability
The answer is to be given in %; state only the numeric part.

Solved cases (4 shown):
>  <molecule>
O=C(OCCC1SC(NC2CC3C=CC2C3)=NC1=O)c1c(F)cccc1F (centres unmarked) [CBK200057T]

>  <result.unit>
%

>  <endpoint.result>
89.7

$$$$
>  <molecule>
CC(c1nc2ccccc2[nH]1)N1CCC2(CC1)NCCc1c2[nH]c2ccccc12 (centres unmarked)

>  <result.unit>
%

>  <endpoint.result>
90.3

$$$$
>  <molecule>
CC(C)(C)c1ccc(C(=O)Nc2nsc(-c3ccc(Cl)cc3)n2)cc1

>  <result.unit>
%

>  <endpoint.result>
89.6

$$$$
>  <molecule>
COc1c(C)cccc1C(=O)N1CCCCC1c1ncc(C(=O)Nc2ccccc2)c(C)n1 (centres unmarked)

>  <result.unit>
%

>  <endpoint.result>
89.9

$$$$

Now for another entry.
Given OCCN1CC2(CCN(CCN3CCOCC3)CC2)c2ccccc21 , respond with its viability at 28.5 h, 10 µM.
91.4
